biological target: GLP-1 Receptor (Homo sapiens); experiment: GLP-1R agonist cAMP stimulation assay (HEK293/GLP1R/CRE-LUC cells, Cisbio cAMP dynamic 2 kit); conditions: HEK293/CRE-Luc cell line stably expressing the GLP-1 Receptor; 1000 cells/well; 30 min at 37° C.; 0.5 mM IBMX, 0.1% BSA; read-out: GLP1R cAMP Stimulation DR: EC50;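 further: compounds tested in half-log serial dilution, cAMP detected with cAMP-d2 and anti-cAMP cryptate antibody reagents after 1 h at room temperature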
Sequence (P43220 24-463, species assumed): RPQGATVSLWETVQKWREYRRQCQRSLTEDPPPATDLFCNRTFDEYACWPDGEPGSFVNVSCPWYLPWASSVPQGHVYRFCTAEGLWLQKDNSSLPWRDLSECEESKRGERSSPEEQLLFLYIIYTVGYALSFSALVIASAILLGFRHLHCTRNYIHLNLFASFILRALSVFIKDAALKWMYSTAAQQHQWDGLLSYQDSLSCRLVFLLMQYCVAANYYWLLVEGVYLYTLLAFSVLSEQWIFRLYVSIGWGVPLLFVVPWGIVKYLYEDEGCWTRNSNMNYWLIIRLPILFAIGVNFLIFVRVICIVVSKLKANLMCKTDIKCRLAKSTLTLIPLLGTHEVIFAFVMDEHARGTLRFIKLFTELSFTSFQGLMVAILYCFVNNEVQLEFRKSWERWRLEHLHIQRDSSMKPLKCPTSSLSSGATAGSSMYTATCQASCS
pEC50: −log10 of the molar value.
Class definitions on pEC50: band 1 (below 8), band 2 (8 to below 10), band 3 (10 or more)

For orientation, consider the following solved cases.
# compound, test.target, assigned.category
measured = [
    ("Cn1c(-c2nn[nH]n2)cnc1CN1CCC(c2cccc(OCc3ccc(Cl)cc3F)n2)CC1 [Compound 105]", "GLP-1 Receptor (Homo sapiens)", "band 1"),
    ("CC(=O)N(C)CCn1c(/C=C/C(=O)O)cnc1CN1CCC(c2cccc3c2OC(C)(c2ccc(Cl)cc2F)O3)CC1 (stereo not shown) [Compound 175]", "GLP-1 Receptor (Homo sapiens)", "band 3"),
    ("Cn1c(/C=C/C(=O)O)nnc1CN1CCC(c2cccc(OCc3ccc(Cl)cc3F)n2)CC1 [Compound 112]", "GLP-1 Receptor (Homo sapiens)", "band 2"),
    ("Cn1c(C2CC2C(=O)O)cnc1CN1CCC(c2cccc(OCc3ccc(Cl)cc3F)n2)CC1 (stereo not shown) [Compound 108]", "GLP-1 Receptor (Homo sapiens)", "band 1"),
    ("Cn1c(C2CCC(C(=O)O)C2)cnc1CN1CCC(c2cccc3c2OC(C)(c2ccc(Cl)cc2F)O3)CC1 (stereo not shown) [Compound 247]", "GLP-1 Receptor (Homo sapiens)", "band 1"),
]

Band of Cn1c(C(=O)O)cnc1CN1CCC(c2cccc(OCc3ccc(Cl)cc3F)n2)CC1 [Compound 101] ?
band 1

Band of O=C(O)/C=C/c1nnc(CN2CCC(c3cccc(OCc4ccc(Cl)cc4F)n3)CC2)n1CC(F)F [Compound 230] ?
band 1

Band of CCc1ncoc1Cn1c(/C=C/C(=O)O)cnc1CN1CCC(c2cccc3c2OC(C)(c2ccc(Cl)cc2F)O3)CC1 (stereo not shown) [Compound 184] ?
band 2

Band of C[C@H](Cn1c(/C=C/C(=O)O)cnc1CN1CCC(c2cccc3c2O[C@@](C)(c2ccc(Cl)cc2F)O3)CC1)OC1CC1 [Compound 170b] ?
band 3

Band of CCn1cncc1Cn1c(CCC(=O)O)cnc1CN1CCC(c2cccc3c2OC(C)(c2ccc(Cl)cc2F)O3)CC1 (stereo not shown) [Compound 143] ?
band 3

Band of C[C@H](Cn1c(/C=C/C(=O)O)cnc1CN1CCC(c2cccc3c2O[C@@](C)(c2ccc(Cl)cc2F)O3)CC1)OC(F)F [Compound 169b] ?
band 3

Band of CC1(c2ccc(Cl)cc2F)Oc2cccc(C3CCN(Cc4ncc(/C=C/C(=O)O)n4C4CC(O)C4)CC3)c2O1 (stereo not shown) [Compound 178] ?
band 2

Band of C/C(=C\c1nnc(CN2CCC(c3cccc(OCc4ccc(Cl)cc4F)n3)CC2)n1C[C@@H]1CCO1)C(=O)O [Compound 226a] ?
band 2
